# Test system: PMA-differentiated THP-1 cells
# Type: cell-based, human
# run-conditions: 3 h
# Method: The ability of [SRSRY] peptide to affect THP-1 cell migration was analyzed in Boyden chambers using 10 nM fMLF or 10 nM SRSRY as chemoattractants. […] A total of 100 cells/sample that translocated to the area corresponding to the ring separating the inner and outer chambers were counted and their cytoskeletal organization examined with a fluorescence-inverted microscope. […] The extent of cell migration was expressed as a percentage of the net fMLF-dependent cell migration, considered as 100%. […]
Peptide text beside a SMILES is read from it.
property-label: IC50 (nM)
Your answer should be a plain number; it is taken to be in nM.

Prompt: # query: IC50 | item N=C(N)NCCC[C@@H]1NC(=O)[C@H](CO)NC(=O)[C@H](Cc2ccc(O)cc2)NC(=O)[C@H](CCCNC(=N)N)NC(=O)[C@H](CO)NC1=O [[SRSRY], [Ser-Arg-Ser-Arg-Tyr]] (cyclo(RSRYS)) | system: PMA-differentiated THP-1 cells
Response: 0.01
